Biological target: norepinephrine (NE) transporter (Rattus norvegicus)
Sequence (Q9WTR4 1-597): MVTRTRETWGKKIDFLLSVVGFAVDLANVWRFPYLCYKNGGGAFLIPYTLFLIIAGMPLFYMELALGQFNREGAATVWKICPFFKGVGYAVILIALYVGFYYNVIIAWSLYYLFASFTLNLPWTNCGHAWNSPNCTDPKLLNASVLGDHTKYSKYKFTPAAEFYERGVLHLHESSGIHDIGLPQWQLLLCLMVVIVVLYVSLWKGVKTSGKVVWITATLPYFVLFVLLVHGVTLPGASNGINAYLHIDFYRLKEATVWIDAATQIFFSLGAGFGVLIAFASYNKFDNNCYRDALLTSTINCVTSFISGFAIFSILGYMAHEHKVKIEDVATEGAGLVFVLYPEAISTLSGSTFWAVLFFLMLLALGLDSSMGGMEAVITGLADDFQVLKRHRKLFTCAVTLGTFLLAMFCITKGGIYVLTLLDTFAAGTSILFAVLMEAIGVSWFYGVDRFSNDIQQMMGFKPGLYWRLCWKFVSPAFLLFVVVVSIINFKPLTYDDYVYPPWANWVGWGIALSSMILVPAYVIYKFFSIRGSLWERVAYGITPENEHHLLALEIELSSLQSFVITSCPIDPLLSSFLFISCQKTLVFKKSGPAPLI
Assay: Inhibition of [3H]NE uptake in rat hypothalamus synaptosomes
Assay type: biochemical
quantity kind: IC50

Please review the entries below; each comes with its answer.
CN1CC2CC2(c2ccc(F)cc2)C1 (stereo not shown) : 170 nM
CCN1CC2CC2(c2ccc(C)cc2)C1 (stereo not shown) : < 100 nM

Asked: Name the recorded IC50 for Cc1ccc(C23CC2CN(C)C3)cc1 (stereo not shown) .
Given back: 150 nM

Asked: Name the recorded IC50 for CN1CC2CC2(c2cccc(Cl)c2)C1 (stereo not shown) .
Given back: 83 nM

###

Target: dopamine (DA) transporter (Rattus norvegicus, UniProt P23977)
Sequence (P23977 whole entry): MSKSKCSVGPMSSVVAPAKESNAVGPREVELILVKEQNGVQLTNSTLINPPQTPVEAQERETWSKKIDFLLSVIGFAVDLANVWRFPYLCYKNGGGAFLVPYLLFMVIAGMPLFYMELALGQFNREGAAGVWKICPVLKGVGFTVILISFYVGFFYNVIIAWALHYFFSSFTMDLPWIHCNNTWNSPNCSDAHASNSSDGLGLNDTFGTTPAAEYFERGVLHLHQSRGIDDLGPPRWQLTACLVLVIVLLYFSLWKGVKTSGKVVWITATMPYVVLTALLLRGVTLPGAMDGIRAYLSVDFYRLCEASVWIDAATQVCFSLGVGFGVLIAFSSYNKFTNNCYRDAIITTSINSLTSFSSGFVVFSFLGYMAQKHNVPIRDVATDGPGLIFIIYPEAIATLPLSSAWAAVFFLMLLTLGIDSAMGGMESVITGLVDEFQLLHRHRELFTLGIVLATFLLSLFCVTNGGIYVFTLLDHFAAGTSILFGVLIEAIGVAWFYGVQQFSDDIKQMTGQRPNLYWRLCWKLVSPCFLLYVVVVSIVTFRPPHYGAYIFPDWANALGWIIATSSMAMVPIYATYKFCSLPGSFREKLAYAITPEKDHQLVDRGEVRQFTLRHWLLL
Assay: Inhibition of [3H]DA uptake in rat striatum synaptosomes
Format: biochemical
Details: rat striatum synaptosomes, [3H]DA, 15 min, 37° C.; read-out: Inhibition of DA Uptake (IC50)
quantity kind: pIC50
Just the number, please; pIC50 means minus log10 of the concentration in mol/L.

Please review the entries below; each comes with its answer.
CN1CC2CC2(c2ccc(CN)cc2)C1 (stereo not shown) [CH3,4-CH2NH2] : 5.07
COCCN1CC2CC2(c2ccc(C)cc2)C1 (stereo not shown) [C3H7O, 4-CH3] : 5.00

Asked: What measured pIC50 is associated with Cc1ccc(C23CNCC2C3)cc1.Cl (stereo not shown) [bicifadine, hydrochloride, reference compound] on dopamine (DA) transporter (Rattus norvegicus, UniProt P23977)?
Given back: 5.89

Asked: What measured pIC50 is associated with Cc1ccc(C23CC2CN(CC(F)(F)F)C3)cc1 (stereo not shown) [C2H2F3,4-CH3] on dopamine (DA) transporter (Rattus norvegicus, UniProt P23977)?
Given back: 4.32
